# system.under.test: T1, Human membrane IL-6R on cells (human, UniProt P08887 20-468)
# T1 sequence (looked up): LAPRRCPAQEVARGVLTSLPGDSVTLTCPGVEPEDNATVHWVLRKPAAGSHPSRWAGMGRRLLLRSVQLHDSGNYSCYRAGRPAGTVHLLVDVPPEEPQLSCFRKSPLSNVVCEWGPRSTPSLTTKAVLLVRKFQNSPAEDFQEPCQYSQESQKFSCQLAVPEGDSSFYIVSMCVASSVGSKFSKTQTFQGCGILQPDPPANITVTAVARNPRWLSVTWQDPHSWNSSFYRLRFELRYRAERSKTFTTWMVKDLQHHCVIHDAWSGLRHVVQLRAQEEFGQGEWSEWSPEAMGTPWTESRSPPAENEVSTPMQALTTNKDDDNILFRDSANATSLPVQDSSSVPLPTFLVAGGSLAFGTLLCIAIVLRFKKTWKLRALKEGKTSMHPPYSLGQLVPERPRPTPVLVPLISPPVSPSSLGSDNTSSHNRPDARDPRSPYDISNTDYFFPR
# assay.name: cell-based or functional assay
Threshold 9 nM. IC50 (nM), TF1 cell proliferation below it: MET. IC50 (nM), TF1 cell proliferation at it or above: NOT MET.

Exercise: Just wondering, is IC50 (nM), TF1 cell proliferation of IL6R09 (VHH, also called PMP34G9; not shown: C-terminal c-myc and (His)6 tags) VHH: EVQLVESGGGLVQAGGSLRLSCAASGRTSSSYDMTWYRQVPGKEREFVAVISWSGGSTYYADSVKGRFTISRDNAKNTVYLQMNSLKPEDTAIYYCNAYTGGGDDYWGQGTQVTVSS below 9 nM?
Key: MET

Exercise: Dear reviewer, please state whether IL6R05 (VHH, also called PMP32E10; not shown: C-terminal c-myc and (His)6 tags) VHH: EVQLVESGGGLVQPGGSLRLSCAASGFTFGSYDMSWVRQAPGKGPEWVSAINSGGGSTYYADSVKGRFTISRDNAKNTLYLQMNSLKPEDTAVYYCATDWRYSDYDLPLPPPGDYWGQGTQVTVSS has IC50 (nM), TF1 cell proliferation strictly beneath 9 nM.
Key: NOT MET

Exercise: Answer whether the binder IL6R10 (VHH, also called PMP35C10; not shown: C-terminal c-myc and (His)6 tags) VHH: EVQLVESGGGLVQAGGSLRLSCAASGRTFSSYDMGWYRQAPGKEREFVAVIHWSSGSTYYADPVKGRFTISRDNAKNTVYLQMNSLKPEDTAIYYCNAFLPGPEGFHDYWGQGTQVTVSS has IC50 (nM), TF1 cell proliferation strictly less than 9 nM
Key: NOT MET

Exercise: Does the reported IC50 (nM), TF1 cell proliferation of IL6R02 (VHH, also called PMP30C11; not shown: C-terminal c-myc and (His)6 tags) VHH: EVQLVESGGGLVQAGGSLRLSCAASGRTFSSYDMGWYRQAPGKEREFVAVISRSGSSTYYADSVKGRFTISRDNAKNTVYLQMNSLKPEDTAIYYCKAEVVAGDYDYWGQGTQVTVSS stay below 9 nM?
Key: NOT MET

Exercise: Does IL6R07 (VHH, also called PMP33A3; not shown: C-terminal c-myc and (His)6 tags) VHH: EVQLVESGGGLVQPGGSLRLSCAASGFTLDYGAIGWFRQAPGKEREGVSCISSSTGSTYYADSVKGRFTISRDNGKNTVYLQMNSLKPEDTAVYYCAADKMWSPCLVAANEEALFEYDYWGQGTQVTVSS have IC50 (nM), TF1 cell proliferation strictly under 9 nM?
Key: NOT MET

Exercise: Given IL6R04 (VHH, also called PMP32C9; not shown: C-terminal c-myc and (His)6 tags) VHH: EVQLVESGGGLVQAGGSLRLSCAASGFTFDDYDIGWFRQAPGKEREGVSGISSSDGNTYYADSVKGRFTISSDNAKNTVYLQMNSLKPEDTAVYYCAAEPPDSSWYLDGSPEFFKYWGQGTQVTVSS , is recorded IC50 (nM), TF1 cell proliferation strictly lower than 9 nM?
Key: MET

Exercise: Lab log: compare recorded IC50 (nM), TF1 cell proliferation with 9 nM; is it strictly lower for IL6R14 (VHH, also called PMP40H5; not shown: C-terminal c-myc and (His)6 tags) VHH: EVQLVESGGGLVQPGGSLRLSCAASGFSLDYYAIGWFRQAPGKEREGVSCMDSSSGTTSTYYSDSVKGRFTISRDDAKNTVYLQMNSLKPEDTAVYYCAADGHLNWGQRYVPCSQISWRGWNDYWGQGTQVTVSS ?
Key: MET

Exercise: Answer whether the binder IL6R13 (VHH, also called PMP35H4; not shown: C-terminal c-myc and (His)6 tags) VHH: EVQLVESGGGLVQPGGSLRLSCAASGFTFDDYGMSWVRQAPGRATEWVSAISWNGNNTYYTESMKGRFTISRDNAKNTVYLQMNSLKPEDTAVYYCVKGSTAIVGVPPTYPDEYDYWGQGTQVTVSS has IC50 (nM), TF1 cell proliferation strictly less than 9 nM
Key: MET

Numbers sourced from patent US20120077731A1.
